tested on: GM-CSF induced STAT5 phosphorylation mediated by the JAK2/JAK2 homdimeric complex; assay: GM-CSF Induced pSTAT5 in Human PBMC; conditions: Homo sapiens, PBMC, 20 min, read-out: PBMC_GMCSF_pSTAT5 IC50, human PBMC; GM-CSF 5 ng/mL for 20 minutes; pSTAT5
Recorded IC50 for the following molecules
MEASURED PROPERTY: IC50

[
  {
    "MOLECULE": "CNc1cc(Nc2cccn([C@H]3CCCOC3)c2=O)nc2c(C(=O)NC3CC3)cnn12",
    "OBSERVED MEASUREMENT": "> 50 µM"
  },
  {
    "MOLECULE": "CNc1cc(Nc2cccn([C@@H]3CCC[C@H](OC)C3)c2=O)nc2c(C(=O)N[C@@H]3C[C@@H]3F)cnn12",
    "OBSERVED MEASUREMENT": "> 50 µM"
  },
  {
    "MOLECULE": "CNc1cc(Nc2cccnc2OC2CC2)nc2c(C(=O)N[C@H]3COC[C@H]3O)cnn12",
    "OBSERVED MEASUREMENT": "> 50 µM"
  },
  {
    "MOLECULE": "CNc1cc(Nc2cccn(-c3cnc(C(=O)N(C)C)cn3)c2=O)nc2c(C(=O)NC3CCC3)cnn12",
    "OBSERVED MEASUREMENT": "> 2.5 µM"
  },
  {
    "MOLECULE": "CCn1cc(Cl)cc(Nc2cc(NC)n3ncc(C(=O)NC4CC4)c3n2)c1=O",
    "OBSERVED MEASUREMENT": "> 12.5 µM"
  },
  {
    "MOLECULE": "CNc1cc(Nc2cccn([C@@H]3CCC[C@@H](OC)C3)c2=O)nc2c(C(=O)N[C@H]3CC[C@@H]3OC)cnn12",
    "OBSERVED MEASUREMENT": "> 50 µM"
  },
  {
    "MOLECULE": "CNc1cc(Nc2cccnc2OC(C)C)nc2c(C(=O)N[C@H]3C[C@H]3F)cnn12",
    "OBSERVED MEASUREMENT": "> 50 µM"
  },
  {
    "MOLECULE": "CNc1cc(Nc2cccn([C@H]3CCCC[C@H]3O)c2=O)nc2c(C(=O)N[C@@H]3C[C@@H]3F)cnn12",
    "OBSERVED MEASUREMENT": "> 50 µM"
  }
]
